Assay: activity coefficient (dimensionless); of the first substance listed, at infinite dilution; xn = mol fraction of the nth substance listed
Conditions: 333.15 K; Liquid; Chromatography; x1 = 0
We use 2 as the dividing line for activity coefficient: on or above the line is Fulfilled, below is Not fulfilled.

[
  {
    "compound": "CCCCCC=O [hexanal] + CCCCCC[n+]1ccn(C)c1.O=S(=O)([N-]S(=O)(=O)C(F)(F)F)C(F)(F)F",
    "group-label": "Not fulfilled"
  },
  {
    "compound": "C=CCCCCCCCCC [1-undecene] + CCCCCC[n+]1ccn(C)c1.O=S(=O)([N-]S(=O)(=O)C(F)(F)F)C(F)(F)F",
    "group-label": "Fulfilled"
  },
  {
    "compound": "C=CCCCCCCCC [1-decene] + CCCCCC[n+]1ccn(C)c1.O=S(=O)([N-]S(=O)(=O)C(F)(F)F)C(F)(F)F",
    "group-label": "Fulfilled"
  },
  {
    "compound": "C1=CCCC=C1 [1,3-cyclohexadiene] + CCCCCC[n+]1ccn(C)c1.O=S(=O)([N-]S(=O)(=O)C(F)(F)F)C(F)(F)F",
    "group-label": "Not fulfilled"
  },
  {
    "compound": "C=CCCCCCCCCCC [1-dodecene] + CCCCCC[n+]1ccn(C)c1.O=S(=O)([N-]S(=O)(=O)C(F)(F)F)C(F)(F)F",
    "group-label": "Fulfilled"
  }
]

Challenge: Is activity coefficient for CCCCO [butan-1-ol] + CCCCCC[n+]1ccn(C)c1.O=S(=O)([N-]S(=O)(=O)C(F)(F)F)C(F)(F)F at or above 2?
Response given: Not fulfilled

Challenge: Record: C=CCCCCCCC [1-nonene] + CCCCCC[n+]1ccn(C)c1.O=S(=O)([N-]S(=O)(=O)C(F)(F)F)C(F)(F)F
Response given: Fulfilled

###

Test: activity coefficient (dimensionless); of the first substance listed, at infinite dilution; xn = mol fraction of the nth substance listed
Details: 354.05 K; Liquid; Chromatography; x1 = 0
measurement-label: activity coefficient
Could you keep your reply to the number by itself?

Sample answers from the record:
[
  {
    "compound": "CCCCCCCO [heptan-1-ol] + CCCCCC[n+]1ccn(C)c1.O=S(=O)([N-]S(=O)(=O)C(F)(F)F)C(F)(F)F",
    "reported-value": 4.61
  },
  {
    "compound": "CCCCCCCC=O [octanal] + CCCCCC[n+]1ccn(C)c1.O=S(=O)([N-]S(=O)(=O)C(F)(F)F)C(F)(F)F",
    "reported-value": 1.9
  }
]

Challenge: Query (compound): CCCCCC=O [hexanal] + CCCCCC[n+]1ccn(C)c1.O=S(=O)([N-]S(=O)(=O)C(F)(F)F)C(F)(F)F ; field requested: activity coefficient
Response given: 1.23

###

Test: activity coefficient (dimensionless); of the first substance listed, at infinite dilution; xn = mol fraction of the nth substance listed
Conditions: 343.95 K; Liquid; Chromatography; x1 = 0
Assign True to entries whose activity coefficient meets or exceeds 1; assign False to the rest.

Worked examples follow.
[
  {
    "compound": "C=CCCCCC [1-heptene] + CCCCCC[n+]1ccn(C)c1.O=S(=O)([N-]S(=O)(=O)C(F)(F)F)C(F)(F)F",
    "group-label": "True"
  },
  {
    "compound": "C=CCCCCCC [oct-1-ene] + CCCCCC[n+]1ccn(C)c1.O=S(=O)([N-]S(=O)(=O)C(F)(F)F)C(F)(F)F",
    "group-label": "True"
  },
  {
    "compound": "ClC(Cl)Cl [trichloromethane] + CCCCCC[n+]1ccn(C)c1.O=S(=O)([N-]S(=O)(=O)C(F)(F)F)C(F)(F)F",
    "group-label": "False"
  },
  {
    "compound": "CCCCC [pentane] + CCCCCC[n+]1ccn(C)c1.O=S(=O)([N-]S(=O)(=O)C(F)(F)F)C(F)(F)F",
    "group-label": "True"
  },
  {
    "compound": "CCO [ethanol] + CCCCCC[n+]1ccn(C)c1.O=S(=O)([N-]S(=O)(=O)C(F)(F)F)C(F)(F)F",
    "group-label": "True"
  }
]

# ---- query compound ----
Challenge: Can CCCO [propan-1-ol] + CCCCCC[n+]1ccn(C)c1.O=S(=O)([N-]S(=O)(=O)C(F)(F)F)C(F)(F)F be said to have activity coefficient at or above 1?
Response given: True

###

Experiment: activity coefficient (dimensionless); of the first substance listed, at infinite dilution; xn = mol fraction of the nth substance listed
Details: 343.65 K; Liquid; Chromatography; x1 = 0
Label Condition met when activity coefficient >= 0.9; otherwise Condition not met.

# count of solved cases: 2
[
  {
    "molecule": "CCCCCC(=O)OC [methyl hexanoate] + CCCCCC[n+]1ccn(C)c1.O=S(=O)([N-]S(=O)(=O)C(F)(F)F)C(F)(F)F",
    "group-label": "Condition met"
  },
  {
    "molecule": "CCCCO [butan-1-ol] + CCCCCC[n+]1ccn(C)c1.O=S(=O)([N-]S(=O)(=O)C(F)(F)F)C(F)(F)F",
    "group-label": "Condition met"
  }
]

Challenge: Is it the case that CCC(=O)OC [methyl propanoate] + CCCCCC[n+]1ccn(C)c1.O=S(=O)([N-]S(=O)(=O)C(F)(F)F)C(F)(F)F has activity coefficient reaching or exceeding 0.9?
Response given: Condition not met

Challenge: Moving on to the next molecule: CCCCC(=O)OC [methyl pentanoate] + CCCCCC[n+]1ccn(C)c1.O=S(=O)([N-]S(=O)(=O)C(F)(F)F)C(F)(F)F
Response given: Condition met

Challenge: Also C1=CCCC=C1 [1,3-cyclohexadiene] + CCCCCC[n+]1ccn(C)c1.O=S(=O)([N-]S(=O)(=O)C(F)(F)F)C(F)(F)F ?
Response given: Condition met

###

Test: activity coefficient (dimensionless); of the first substance listed, at infinite dilution; xn = mol fraction of the nth substance listed
Conditions: 333.35 K; Liquid; Chromatography; x1 = 0
Reported activity coefficient is given for each of the following molecules.

Examples with answers:
[
  {
    "molecule": "CCCCCCCCCCC [undecane] + CCCCCC[n+]1ccn(C)c1.O=S(=O)([N-]S(=O)(=O)C(F)(F)F)C(F)(F)F",
    "measurement-label": "activity coefficient",
    "reported-value": 30
  },
  {
    "molecule": "CCCCC=O [pentanal] + CCCCCC[n+]1ccn(C)c1.O=S(=O)([N-]S(=O)(=O)C(F)(F)F)C(F)(F)F",
    "measurement-label": "activity coefficient",
    "reported-value": 1.06
  },
  {
    "molecule": "CC#N [acetonitrile] + CCCCCC[n+]1ccn(C)c1.O=S(=O)([N-]S(=O)(=O)C(F)(F)F)C(F)(F)F",
    "measurement-label": "activity coefficient",
    "reported-value": 0.434
  },
  {
    "molecule": "CC(C)=O [acetone] + CCCCCC[n+]1ccn(C)c1.O=S(=O)([N-]S(=O)(=O)C(F)(F)F)C(F)(F)F",
    "measurement-label": "activity coefficient",
    "reported-value": 0.366
  }
]

Challenge: What value of activity coefficient has been recorded for this entry: CCCCCCCCCCCC [dodecane] + CCCCCC[n+]1ccn(C)c1.O=S(=O)([N-]S(=O)(=O)C(F)(F)F)C(F)(F)F
Response given: 39.6

Challenge: Repeat with Cc1ccccc1 [toluene] + CCCCCC[n+]1ccn(C)c1.O=S(=O)([N-]S(=O)(=O)C(F)(F)F)C(F)(F)F
Response given: 1.06

Challenge: For CCCC=O [butanal] + CCCCCC[n+]1ccn(C)c1.O=S(=O)([N-]S(=O)(=O)C(F)(F)F)C(F)(F)F then?
Response given: 0.572

Challenge: Consider next the molecule CC(C)CO [2-methyl-1-propanol] + CCCCCC[n+]1ccn(C)c1.O=S(=O)([N-]S(=O)(=O)C(F)(F)F)C(F)(F)F in the same way.
Response given: 1.68

Challenge: Same read-out for CCCCCCCCCC [decane] + CCCCCC[n+]1ccn(C)c1.O=S(=O)([N-]S(=O)(=O)C(F)(F)F)C(F)(F)F ?
Response given: 22.9

Challenge: Same question for CCCc1ccccc1 [propylbenzene] + CCCCCC[n+]1ccn(C)c1.O=S(=O)([N-]S(=O)(=O)C(F)(F)F)C(F)(F)F please.
Response given: 2.1

Challenge: Another molecule to look at: CCC(C)O (stereo unspecified) [butan-2-ol] + CCCCCC[n+]1ccn(C)c1.O=S(=O)([N-]S(=O)(=O)C(F)(F)F)C(F)(F)F
Response given: 1.47

###

Assay: activity coefficient (dimensionless); of the first substance listed, at infinite dilution; xn = mol fraction of the nth substance listed
Settings: 301.75 K; Liquid; Chromatography; x1 = 0
measurement-label: activity coefficient
Lab note: jot down the number only; don't add units.

[
  {
    "molecule": "ClC(Cl)Cl [trichloromethane] + CCCCCC[n+]1ccn(C)c1.O=S(=O)([N-]S(=O)(=O)C(F)(F)F)C(F)(F)F",
    "activity coefficient": 0.67
  },
  {
    "molecule": "CCCCC=O [pentanal] + CCCCCC[n+]1ccn(C)c1.O=S(=O)([N-]S(=O)(=O)C(F)(F)F)C(F)(F)F",
    "activity coefficient": 1.11
  },
  {
    "molecule": "CC(C)=O [acetone] + CCCCCC[n+]1ccn(C)c1.O=S(=O)([N-]S(=O)(=O)C(F)(F)F)C(F)(F)F",
    "activity coefficient": 0.352
  },
  {
    "molecule": "CCC=O [propanal] + CCCCCC[n+]1ccn(C)c1.O=S(=O)([N-]S(=O)(=O)C(F)(F)F)C(F)(F)F",
    "activity coefficient": 0.453
  }
]

Challenge: Return reported activity coefficient; argument: CCCC=O [butanal] + CCCCCC[n+]1ccn(C)c1.O=S(=O)([N-]S(=O)(=O)C(F)(F)F)C(F)(F)F
Response given: 0.578
